Taken from PubChem BioAssay (NCI).

growth reference
Test system: NCI-H460 lung
Experiment: NCI-60 one-dose screen, 48 h (100 = growth as untreated, 0 = no growth, -100 = all killed)
Details: 10 µM unless noted
Compounds without any hit were thinned out: in the full panel of roughly 83,000, 20% have a hit.

[
  {
    "compound": "COC(=O)[C@H](Cc1ccccc1)NC(=O)c1csc([C@@H](C[C@H](C(C)C)N(C)C(=O)[C@@H](NC(=O)[C@H]2CCCN2C)C2CC2)OC(C)=O)n1",
    "growth / %": 4.53
  },
  {
    "compound": "O=C1OCCC1Br (configuration not stated)",
    "growth / %": 105
  },
  {
    "compound": "O=C(CCCCCNC1=CC(=O)c2ccccc2C1=O)NCCC[Te]c1ccccc1",
    "growth / %": -45.3
  },
  {
    "compound": "COC(=O)[C@@H](C)C[C@H](Cc1ccccc1)NC(=O)c1nc([C@@H](C[C@H](C(C)C)N(C)C(=O)[C@@H](NC(=O)[C@H]2CCCCN2C)C(C)C)OC(C)=O)sc1C",
    "growth / %": 4.31
  },
  {
    "compound": "Nc1ncnc2n[nH]nc12",
    "growth / %": 95.1
  },
  {
    "compound": "C#Cc1ccc2c(c1)C(c1ccccc1F)=NCC(=O)N2C",
    "growth / %": 18.9
  },
  {
    "compound": "O=[N+]([O-])CC(O)C(Cl)(Cl)Cl (configuration not stated)",
    "growth / %": 101
  }
]

###

growth reference
Tested on: CAKI-1 renal
Assay: NCI-60 one-dose screen, 48 h (100 = growth as untreated, 0 = no growth, -100 = all killed)
Conditions: 10 µM unless noted
Compounds without any hit were thinned out: in the full panel of roughly 83,000, 20% have a hit.

[
  {
    "molecule": "Cc1cccc(N2CCN(C(C)C#N)CC2)c1 (stereo unspecified)",
    "tgt": "CAKI-1 renal",
    "growth [%]": 95
  },
  {
    "molecule": "CCOc1ccc(/C=C/[N+](=O)[O-])cc1",
    "tgt": "CAKI-1 renal",
    "growth [%]": 101
  },
  {
    "molecule": "CN1CCCCC1C(C)(O)c1ccccc1 (stereo unspecified)",
    "tgt": "CAKI-1 renal",
    "growth [%]": 96.4
  },
  {
    "molecule": "[Cl][Hg][n]1c(-c2ccco2)nc2ccccc21",
    "tgt": "CAKI-1 renal",
    "growth [%]": 107
  },
  {
    "molecule": "Oc1c(CCl)cc(Cl)cc1CCl",
    "tgt": "CAKI-1 renal",
    "growth [%]": 104
  },
  {
    "molecule": "O=C1CN=C(c2ccc(Cl)cc2)c2sccc2N1",
    "tgt": "CAKI-1 renal",
    "growth [%]": 97.9
  },
  {
    "molecule": "COc1cccc2c1c(C(=O)c1ccco1)cn2Cc1ccc(F)cc1",
    "tgt": "CAKI-1 renal",
    "growth [%]": 184
  },
  {
    "molecule": "C/C1=C/C(=O)O[C@@H]2C[C@@H](CC[C@H](C)/C=C\\C=C\\CC1)O[C@@](O)([C@@H]1CSC(=O)N1CO)C2",
    "tgt": "CAKI-1 renal",
    "growth [%]": -48.3
  },
  {
    "molecule": "C=C1C(=O)O[C@H]2[C@H]1CC/C(COC(=O)C(=O)c1cn(Cc3ccccc3)c3ccccc13)=C\\CC[C@@]1(C)O[C@@H]21",
    "tgt": "CAKI-1 renal",
    "growth [%]": -34.6
  },
  {
    "molecule": "C=CCCCCCCCCC(=O)[O-].C=CCCCCCCCCC(=O)[O-].[Zn+2]",
    "tgt": "CAKI-1 renal",
    "growth [%]": 90
  },
  {
    "molecule": "O=C1OCC2=C1C(c1ccccc1)c1cc3c(cc1N2)OCO3 (stereo unspecified)",
    "tgt": "CAKI-1 renal",
    "growth [%]": 38.8
  },
  {
    "molecule": "COC(=O)[C@@H](C)C[C@H](Cc1ccccc1)NC(=O)c1csc([C@@H](C[C@H](C(C)C)N(C)C(=O)C2(NC(=O)[C@H]3CCCCN3C)CC2)OC(C)=O)n1",
    "tgt": "CAKI-1 renal",
    "growth [%]": 59.8
  },
  {
    "molecule": "COc1ccc2nc(NC(=O)COc3cc(/C=C\\c4cc(OC)c(OC)c(OC)c4)ccc3OC)sc2c1",
    "tgt": "CAKI-1 renal",
    "growth [%]": 6.25
  },
  {
    "molecule": "Cn1cc(C2=C(c3cn(C4CCN(Cc5ccccn5)CC4)c4ccccc34)C(=O)NC2=O)c2ccccc21",
    "tgt": "CAKI-1 renal",
    "growth [%]": 50.8
  },
  {
    "molecule": "O=C(Nc1ccc([As]=[As]c2ccc(NC(=O)c3ccccc3)cc2)cc1)c1ccccc1 (stereo unspecified)",
    "tgt": "CAKI-1 renal",
    "growth [%]": -80.2
  },
  {
    "molecule": "CC(C)CCC1(CCCl)C(=O)NC(=O)NC1=O",
    "tgt": "CAKI-1 renal",
    "growth [%]": 94.6
  },
  {
    "molecule": "O=C(Nc1ccncc1F)c1cn(CC2CC2)c2ccccc12",
    "tgt": "CAKI-1 renal",
    "growth [%]": 98.2
  },
  {
    "molecule": "C1CCC([PH+](C2CCCCC2)C2CCCCC2[PH+](C2CCCCC2)C2CCCCC2)CC1.[Au].[CH-]1CCCCC1CC1CCCC[N-]1 (stereo unspecified)",
    "tgt": "CAKI-1 renal",
    "growth [%]": -31.3
  },
  {
    "molecule": "C[Se]C(=O)c1ccccc1OC(C)=O",
    "tgt": "CAKI-1 renal",
    "growth [%]": 64.4
  },
  {
    "molecule": "COc1cc(/C=C\\c2cc(OC)c(OC)c(OC)c2)cc(NS(=O)(=O)c2cccc(Cl)c2)c1OC",
    "tgt": "CAKI-1 renal",
    "growth [%]": 11.4
  },
  {
    "molecule": "CN(C)CCCOc1ccc2c(c1)c(C(=O)C(=O)NCCO)cn2Cc1ccccc1",
    "tgt": "CAKI-1 renal",
    "growth [%]": 90.5
  },
  {
    "molecule": "Clc1cccc(NCOOC2(OOCNc3cccc(Cl)c3)CCCCC2)c1",
    "tgt": "CAKI-1 renal",
    "growth [%]": 12.3
  },
  {
    "molecule": "CN(C)C1C(=O)C(C(N)=O)=C(O)C2(O)C(=O)C3=C(O)c4c(O)cccc4C(C)(O)C3CC12.[Cl][Sb]([Cl])[Cl] (stereo unspecified)",
    "tgt": "CAKI-1 renal",
    "growth [%]": 12.3
  },
  {
    "molecule": "COc1ccc(C2=N[C@@H](Cc3ccccc3)C(=O)Nc3ccsc32)cc1",
    "tgt": "CAKI-1 renal",
    "growth [%]": 50.7
  },
  {
    "molecule": "CC[C@H](C)[C@H](NC(=O)c1cccn1C)C(=O)N(C)[C@H](C[C@@H](OC(C)=O)c1nc(C(=O)N[C@@H](Cc2ccccc2)C[C@H](C)C(=O)OC)cs1)C(C)C",
    "tgt": "CAKI-1 renal",
    "growth [%]": 25.1
  },
  {
    "molecule": "CN[C@@]1(c2ccccc2Cl)CCCC[C@@H]1NCC1CCCO1 (stereo partly specified)",
    "tgt": "CAKI-1 renal",
    "growth [%]": 93.9
  }
]

###

Tested on: SNB-75 CNS
Experiment: NCI-60 one-dose screen, 48 h
Conditions: 10 µM unless noted
The panel holds about 83,000 compounds, 20% with a hit somewhere; the sample as a whole holds those more often. The source made the active and inactive calls. The calls were made as follows: active = growth percent below 10; inactive = the rest.
Outcomes: TRUE (active), FALSE (inactive)

[
  {
    "compound": "CCN1C(=O)C(=C/C=C/c2ccccc2)C(=O)N(CC)C1=O",
    "label_value": "FALSE"
  },
  {
    "compound": "O=C(Nc1ccncc1F)c1cn(CC2CC2)c2ccccc12",
    "label_value": "FALSE"
  },
  {
    "compound": "c1cnc2[nH]cc(-c3csc(-c4cn(CCCCN5CCOCC5)c5ccccc45)n3)c2c1",
    "label_value": "FALSE"
  },
  {
    "compound": "CCCCCCCC(=O)OCC(=O)[C@]1(O)Cc2c(O)c3c(c(O)c2[C@@H](OC2CC(N)C(O)C(C)O2)C1)C(=O)c1c(OC)cccc1C3=O (stereo not given in full)",
    "label_value": "TRUE"
  },
  {
    "compound": "COC(=O)[C@@H](C)C[C@H](Cc1ccccc1)NC(=O)c1csc([C@@H](C[C@H](C(C)C)N(C)C(=O)[C@@H](NC(=O)CN(C)C)C2CC2)OC(C)=O)n1",
    "label_value": "FALSE"
  }
]
